Target: Avi-KRAS G12V (1-169) GppNHp/RAF1 RBD-3xFLAG (52-151) (Homo sapiens, UniProt P01116, G12V)
Construct: Avi-KRAS G12V (1-169)
Sequence (P01116 1-169 isoform P01116-2 G12V): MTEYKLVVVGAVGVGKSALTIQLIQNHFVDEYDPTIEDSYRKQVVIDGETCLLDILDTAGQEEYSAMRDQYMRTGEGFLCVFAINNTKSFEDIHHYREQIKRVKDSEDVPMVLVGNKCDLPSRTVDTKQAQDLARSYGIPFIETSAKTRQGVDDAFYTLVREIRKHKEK
Assay: Raf1-KRAS G12V-GppNHP disruption HTRF assay (Biological Example 1)
Format: binding
Settings: KRAS G12V-GppNHp/RAF1 RBD HTRF
pIC50: −log10 of the molar value.
MEASURE NAME: pIC50

[[record]]
compound = "C[C@@H]1[C@H](N(C)c2nc(OC[C@@]34CCCN3C[C@H](F)C4)nc3c(F)c(-c4ccc(F)c5sc(N)c(C#N)c45)c(Cl)cc23)CCN1C(=O)CF"
measure_name = "pIC50"
result = "6.00 to 7.00"

[[record]]
compound = "CCN(c1nc(OC[C@@]23CCCN2C[C@H](F)C3)nc2c(F)c(-c3ccc(F)c4sc(N)c(C#N)c34)c(C(F)(F)F)cc12)[C@H]1C[C@H](C)N(C(=O)C(C)C)C1"
measure_name = "pIC50"
result = "6.00 to 7.00"

[[record]]
compound = "N#Cc1c(N)sc2c(F)ccc(-c3c(C(F)(F)F)cc4c(N5C[C@@H]6[C@H]5CCN6C(=O)C5CC5)nc(OC[C@@]56CCCN5C[C@H](F)C6)nc4c3F)c12"
measure_name = "pIC50"
result = "5.00 to 6.00"

[[record]]
compound = "CN(C)C(=O)c1nc2c(s1)CN(c1nc(OCC34CCCN3CC(F)C4)nc3c(F)c(-c4ccc(F)c5sc(N)c(C#N)c45)c(C(F)(F)F)cc13)CC2 (centres unmarked)"
measure_name = "pIC50"
result = "5.00 to 6.00"

[[record]]
compound = "C[C@@H]1CN(c2nc(OC[C@@]34CCCN3C[C@H](F)C4)nc3c(F)c(-c4ccc(F)c5sc(N)c(C#N)c45)c(C(F)(F)F)cc23)Cc2cc(C(=O)N(C)C)nn21"
measure_name = "pIC50"
result = "6.00 to 7.00"


----------
Molecular target: Avi-KRAS G12V (1-169) GppNHp/RAF1 RBD-3xFLAG (52-151) (Homo sapiens, UniProt P01116, G12V)
Construct: Avi-KRAS G12V (1-169)
Assay: Raf1-KRAS G12V-GppNHP disruption HTRF assay (Biological Example 1)
Assay type: binding
Conditions: KRAS G12V-GppNHp/RAF1 RBD HTRF
MEASURE NAME: IC50

[[record]]
molecule = "CCC(=O)N1C[C@@H](N(CC)c2nc(OC[C@@]34CCCN3C[C@H](F)C4)nc3c(F)c(-c4ccc(F)c5sc(N)c(C#N)c45)c(C(F)(F)F)cc23)C[C@@H]1C [Compound 464]"
tested_on = "Avi-KRAS G12V (1-169) GppNHp/RAF1 RBD-3xFLAG (52-151) (Homo sapiens, UniProt P01116, G12V)"
result = "< 0.1 µM"

[[record]]
molecule = "CCN(c1nc(OC[C@@]23CCCN2C[C@H](F)C3)nc2c(F)c(-c3ccc(F)c4sc(N)c(C#N)c34)c(C(F)(F)F)cc12)[C@H]1C[C@@H](C)N(C(C)=O)C1 [Compound 446]"
tested_on = "Avi-KRAS G12V (1-169) GppNHp/RAF1 RBD-3xFLAG (52-151) (Homo sapiens, UniProt P01116, G12V)"
result = "0.1 to 1 µM"

[[record]]
molecule = "C[C@H]1N(C(=O)C2CC2)CC[C@@]1(C)N(C)c1nc(OC[C@@]23CCCN2C[C@H](F)C3)nc2c(F)c(-c3ccc(F)c4sc(N)c(C#N)c34)c(C(F)(F)F)cc12 [Compound 344]"
tested_on = "Avi-KRAS G12V (1-169) GppNHp/RAF1 RBD-3xFLAG (52-151) (Homo sapiens, UniProt P01116, G12V)"
result = "1 to 10 µM"

[[record]]
molecule = "CCC(=O)N1CC[C@@H](N(C)c2nc(OC[C@@]34CCCN3C[C@H](F)C4)nc3c(F)c(-c4ccc(F)c5sc(N)c(C#N)c45)c(C(F)(F)F)cc23)[C@H]1C (atropisomer, axis not shown) [Compound 335]"
tested_on = "Avi-KRAS G12V (1-169) GppNHp/RAF1 RBD-3xFLAG (52-151) (Homo sapiens, UniProt P01116, G12V)"
result = "< 0.1 µM"

[[record]]
molecule = "CN(C)C(=O)c1cnn2c1CN(c1nc(OC[C@@]34CCCN3C[C@H](F)C4)nc3c(F)c(-c4ccc(F)c5sc(N)c(C#N)c45)c(C(F)(F)F)cc13)CC2 [Compound 353]"
tested_on = "Avi-KRAS G12V (1-169) GppNHp/RAF1 RBD-3xFLAG (52-151) (Homo sapiens, UniProt P01116, G12V)"
result = "1 to 10 µM"

[[record]]
molecule = "N#Cc1c(N)sc2c(F)ccc(-c3c(C(F)(F)F)cc4c(N5C[C@@H]6CC[C@H]5CN6C(=O)C5CC5)nc(OC[C@@]56CCCN5C[C@H](F)C6)nc4c3F)c12 [Compound 456]"
tested_on = "Avi-KRAS G12V (1-169) GppNHp/RAF1 RBD-3xFLAG (52-151) (Homo sapiens, UniProt P01116, G12V)"
result = "0.1 to 1 µM"

[[record]]
molecule = "N#Cc1c(N)sc2c(F)ccc(-c3c(C(F)(F)F)cc4c(N5CCn6nc(C(=O)N7CC(O)C7)cc6C5)nc(OC[C@@]56CCCN5C[C@H](F)C6)nc4c3F)c12 [Compound 502]"
tested_on = "Avi-KRAS G12V (1-169) GppNHp/RAF1 RBD-3xFLAG (52-151) (Homo sapiens, UniProt P01116, G12V)"
result = "0.1 to 1 µM"

[[record]]
molecule = "CCN(c1nc(OC[C@@]23CCCN2C[C@H](F)C3)nc2c(F)c(-c3ccc(F)c4sc(N)c(C#N)c34)c(C(F)(F)F)cc12)[C@@H]1C[C@@H]2CCC(=O)N2C1 [Compound 511]"
tested_on = "Avi-KRAS G12V (1-169) GppNHp/RAF1 RBD-3xFLAG (52-151) (Homo sapiens, UniProt P01116, G12V)"
result = "0.1 to 1 µM"

[[record]]
molecule = "CCC(=O)N1C[C@@H](N(CC)c2nc(OC[C@@]34CCCN3C[C@H](F)C4)nc3c(F)c(-c4ccc(F)c5sc(N)c(C#N)c45)c(C(F)(F)F)cc23)C[C@H]1C [Compound 442]"
tested_on = "Avi-KRAS G12V (1-169) GppNHp/RAF1 RBD-3xFLAG (52-151) (Homo sapiens, UniProt P01116, G12V)"
result = "0.1 to 1 µM"

[[record]]
molecule = "CCN(c1nc(OC[C@@]23CCCN2C[C@H](F)C3)nc2c(F)c(-c3ccc(F)c4sc(N)c(C#N)c34)c(C(F)(F)F)cc12)[C@H]1C[C@H](C)N(C(C)=O)C1 [Compound 463]"
tested_on = "Avi-KRAS G12V (1-169) GppNHp/RAF1 RBD-3xFLAG (52-151) (Homo sapiens, UniProt P01116, G12V)"
result = "< 0.1 µM"

[[record]]
molecule = "CCN(c1nc(OC[C@@]23CCCN2C[C@H](F)C3)nc2c(F)c(-c3ccc(F)c4sc(N)c(C#N)c34)c(C(F)(F)F)cc12)[C@H]1CCN(C(=O)C2CC(F)(F)C2)C1 (atropisomer, axis not shown) [Compound 550]"
tested_on = "Avi-KRAS G12V (1-169) GppNHp/RAF1 RBD-3xFLAG (52-151) (Homo sapiens, UniProt P01116, G12V)"
result = "0.1 to 1 µM"

[[record]]
molecule = "CCN(c1nc(OC[C@@]23CCCN2C[C@H](F)C3)nc2c(F)c(-c3ccc(F)c4sc(N)c(C#N)c34)c(C(F)(F)F)cc12)[C@H]1CCN(C(=O)OC(C)C)C1 (atropisomer, axis not shown) [Compound 556]"
tested_on = "Avi-KRAS G12V (1-169) GppNHp/RAF1 RBD-3xFLAG (52-151) (Homo sapiens, UniProt P01116, G12V)"
result = "0.1 to 1 µM"

[[record]]
molecule = "CC(=O)N1C[C@@H](N(C)c2nc(OC[C@@]34CCCN3C[C@H](F)C4)nc3c(F)c(-c4ccc(F)c5sc(N)c(C#N)c45)c(C(F)(F)F)cc23)C[C@H]1CC#N [Compound 503]"
tested_on = "Avi-KRAS G12V (1-169) GppNHp/RAF1 RBD-3xFLAG (52-151) (Homo sapiens, UniProt P01116, G12V)"
result = "1 to 10 µM"

[[record]]
molecule = "CCN(c1nc(OC[C@@]23CCCN2C[C@H](F)C3)nc2c(F)c(-c3ccc(F)c4sc(N)c(C#N)c34)c(C(F)(F)F)cc12)[C@H]1C[C@@H](C)N(C(=O)N(C)C)C1 (atropisomer, axis not shown) [Compound 558]"
tested_on = "Avi-KRAS G12V (1-169) GppNHp/RAF1 RBD-3xFLAG (52-151) (Homo sapiens, UniProt P01116, G12V)"
result = "0.1 to 1 µM"

[[record]]
molecule = "CCN(c1nc(OC[C@@]23CCCN2C[C@H](F)C3)nc2c(F)c(-c3ccc(F)c4sc(N)c(C#N)c34)c(C(F)(F)F)cc12)C1C[C@@H](C)N(C(=O)C2CC2)C1 (stereo partly drawn) [Compound 516]"
tested_on = "Avi-KRAS G12V (1-169) GppNHp/RAF1 RBD-3xFLAG (52-151) (Homo sapiens, UniProt P01116, G12V)"
result = "0.1 to 1 µM"


Reference for the values: patent US20260042764A1
